Measured pKi, listed per entry for reference.
- Test Target: hCRTH2 (Homo sapiens, UniProt Q9Y5Y4)
- Construct: expressed in transfected cells; host or cells: HEK (human embryonic kidney) cells expressing hCRTH2
- Test Protocol: Radioligand Binding Assay B (scintillation proximity assay, [3H]-PGD2, HEK-hCRTH2 membranes)
- Condition Set: Table B, Radioligand Binding Assay B (SPA), rated A-D
pKi: −log10 of the molar value.

In the examples that follow, each entry is paired with its recorded pKi.
O=C(O)CCCCc1cc2cc(C(=O)N3CCN(c4ccccc4Cl)CC3)ccc2nc1-c1ccc(Cl)cc1 : 6.70 to 7.70
COc1ccccc1C1CCN(C(=O)c2ccc3nc(-c4ccc(Cl)cc4)c(CCCCC(=O)O)cc3c2)CC1 : 7.70 to 8.68
N#CC1(c2ccccc2)CCN(C(=O)c2ccc3nc(-c4ccccc4)c(CCCCC(=O)O)cc3c2)C1 (stereo not shown) : 7.70 to 8.68
O=C(O)CCCCc1cc2cc(C(=O)N3CCN(c4ccccc4)CC3)ccc2nc1-c1ccccc1 : 7.70 to 8.68
Cc1ccc(N2CCN(C(=O)c3ccc4nc(-c5ccc(F)cc5)c(CCCCC(=O)O)cc4c3)CC2)cc1 : 7.70 to 8.68
O=C(O)CCCCc1cc2cc(C(=O)N3CC[C@@H](c4ccc(F)cc4)C3)ccc2nc1-c1ccccc1 : 7.70 to 8.68

Lab note: next compound to report on.
Give reported pKi value for CC(C)(NC(=O)c1ccc2nc(-c3ccccc3)c(CCCCC(=O)O)cc2c1)c1ccc(F)cc1
6.70 to 7.70

----------
- Test Target: hCRTH2 (Homo sapiens, UniProt Q9Y5Y4)
- Construct: expressed in transfected cells; host or cells: HEK (human embryonic kidney) cells expressing hCRTH2
- Test Protocol: Radioligand Binding Assay A ([3H]PGD2 filtration binding, HEK-hCRTH2 membranes)
- Condition Set: values in text
pKi: −log10 of the molar value.
Property Label: pKi

O=C(O)CCCCc1cc2cc(C(=O)NCc3cccnc3)ccc2nc1-c1ccccc1 : 7.54

a. C[C@@H](NC(=O)c1ccc2nc(-c3ccc(F)cc3)c(CCCCC(=O)O)cc2c1)c1cc(Cl)cc(Cl)c1
b. O=C(O)CCCCc1cc2cc(C(=O)NCCCN3CCCC3)ccc2nc1-c1ccccc1
Among a and b , whose measured pKi is the smaller figure? Bench note: the answer is the label of the chosen record.
b

----------
- Test Target: hCRTH2 (Homo sapiens, UniProt Q9Y5Y4)
- Construct: expressed in transfected cells; host or cells: HEK (human embryonic kidney) cells expressing hCRTH2
- Test Protocol: Radioligand Binding Assay A ([3H]PGD2 filtration binding, HEK-hCRTH2 membranes)
- Condition Set: values in text
Property Label: Ki (nM)

Cc1ccc(CNC(=O)c2ccc3nc(-c4ccccc4)c(CCCCC(=O)O)cc3c2)cc1 [Compound 1E] : 4.4

A. O=C(O)CCCCc1cc2cc(C(=O)N[C@@H]3CCCc4ccccc43)ccc2nc1-c1ccc(F)cc1 [Compound 5G]
B. O=C(O)CCCCc1cc2cc(C(=O)N3CCC(c4ccccc4)CC3)ccc2nc1-c1ccccc1 [Compound 1R]
Among A and B , whose measured Ki is the smaller figure? Bench note: the answer is the label of the chosen record.
B
(B: 1.8 nM, A: 2.6 nM)

----------
- Test Target: hCRTH2 (Homo sapiens, UniProt Q9Y5Y4)
- Construct: expressed in transfected cells; host or cells: HEK (human embryonic kidney) cells expressing hCRTH2
- Sequence (Q9Y5Y4 1-395): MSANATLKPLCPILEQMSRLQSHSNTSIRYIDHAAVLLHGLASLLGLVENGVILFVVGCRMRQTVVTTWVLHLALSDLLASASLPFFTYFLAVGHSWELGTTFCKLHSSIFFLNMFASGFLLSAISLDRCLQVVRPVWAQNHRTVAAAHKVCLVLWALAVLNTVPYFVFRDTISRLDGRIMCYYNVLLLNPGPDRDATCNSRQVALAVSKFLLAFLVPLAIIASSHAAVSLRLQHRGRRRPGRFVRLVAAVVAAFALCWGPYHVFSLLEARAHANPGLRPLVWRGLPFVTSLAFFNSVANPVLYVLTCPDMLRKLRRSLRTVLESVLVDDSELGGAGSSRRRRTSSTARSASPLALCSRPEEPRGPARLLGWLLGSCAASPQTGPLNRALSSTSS
- Test Protocol: Radioligand Binding Assay B (scintillation proximity assay, [3H]-PGD2, HEK-hCRTH2 membranes)
- Condition Set: Radioligand Binding Assay B (SPA), values in text
pKi: −log10 of the molar value.
Property Label: pKi

In the examples that follow, each entry is paired with its recorded pKi.
O=C(O)CCCCc1cc2cc(C(=O)N3CCN(c4c(Cl)cncc4Cl)CC3)ccc2nc1-c1ccccc1 : 7.85
O=C(O)CCCCc1cc2cc(C(=O)N3CCN(c4ccccc4)CC3)ccc2nc1-c1ccc(F)cc1 : 7.94
Cc1cccc(N2CCN(C(=O)c3ccc4nc(-c5ccc(Cl)cc5)c(CCCCC(=O)O)cc4c3)CC2)c1 : 8.13
CC1(C)CC(NC(=O)c2ccc3nc(-c4ccc(Cl)cc4)c(CCCCC(=O)O)cc3c2)c2ccccc2O1 (stereo not drawn) : 7.56

a. O=C(O)CCCCc1cc2cc(C(=O)N[C@H]3CCOc4ccccc43)ccc2nc1-c1ccccc1
b. Cc1ccccc1N1CCN(C(=O)c2ccc3nc(-c4ccc(F)cc4)c(CCCCC(=O)O)cc3c2)CC1
Among a and b , whose measured pKi is the smaller figure? Bench note: the answer is the label of the chosen record.
a
